molecular target: α-glucosidase; assay: α-glucosidase inhibitor screening kit
reportedProperty: pIC50
The meaning of pIC50 here: minus log10 of the concentration in molar units.

Entry C=C/C=C(\C)CC[C@@H]1C[C@@H](O)CC(=O)O1 [30b] has what pIC50? 4.18
